Form field: Activity (one value per entry).
Species: Canis familiaris
Assay: The chronotropic effect tested in vitro by using isolated blood-perfused dog heart preparations
Format: functional, Canis lupus familiaris
Give the figure only, with no unit attached.

Field: example entries. Status: answers known.
compound: COc1ccc(CNCC(O)COc2cccc3ccc(O)nc23)cc1OC (stereo not drawn)
Activity: 0

compound: CN(CCc1ccccn1)CC(O)COc1ccc2nc(O)ccc2c1 (stereo not drawn)
Activity: 0

Kindly consider the entry below.
Reported Activity ( CN(CCSc1ccccc1)CC(O)COc1ccc2nc(O)ccc2c1 (stereo not drawn) ) = -1.1

###

Species on record: Canis familiaris
Assay: The chronotropic effect tested in vitro by using isolated blood-perfused dog heart preparations
Format: functional, Canis lupus familiaris
reported_property: Activity
Could you keep your reply to the number by itself?

compound: CCN(Cc1ccccc1)CC(O)COc1cc(C)c2nc(O)ccc2c1 (stereo unspecified)
Activity: -0.4

Field Activity (entry CN(Cc1ccc(F)cc1)CC(O)COc1ccc2nc(O)ccc2c1 (stereo unspecified) ) reads 0

Recorded result, CN(Cc1cccnc1)CC(O)COc1ccc2nc(O)ccc2c1 (stereo unspecified) , Activity: 0.3

response.value for COc1ccc(CNCC(O)COc2ccc3nc(O)ccc3c2)cc1 (stereo unspecified) (field: Activity) = 0

Notebook: CN(Cc1ccccc1)CC(O)COc1ccc2nc(O)c(C#N)cc2c1 (stereo unspecified) , Activity read as 1.1

get_value(item= CN(CCCSc1ccccc1)CC(O)COc1ccc2nc(O)ccc2c1 (stereo unspecified) , readout=Activity) returns 4.3

###

Organism: Canis familiaris
Assay: The chronotropic effect tested in vitro by using isolated blood-perfused dog heart preparations
Format: functional, Canis lupus familiaris
Reported Activity values are given for each entry in this list.
Enter a number only.

compound: CN(CCS(=O)(=O)c1ccccc1)CC(O)COc1ccc2nc(O)ccc2c1 (centres undefined)
Activity: 0.1

compound: CCN(CCc1ccccc1)CC(O)COc1ccc2nc(O)ccc2c1 (centres undefined)
Activity: 0.8

compound: CCN(Cc1ccccc1)CC(O)COc1ccc2nc(O)ccc2c1 (centres undefined)
Activity: 0

compound: COc1ccc(CNCC(O)COc2ccc3ccc(O)nc3c2)cc1OC (centres undefined)
Activity: -0.2

compound: CN(Cc1ccncc1)CC(O)COc1ccc2nc(O)ccc2c1 (centres undefined)
Activity: 0.1

Sure, the documented Activity for COc1ccc(CNCC(O)COc2cc(C)c3nc(O)ccc3c2)cc1OC (centres undefined) is 0

Entry Oc1ccc2cc(OCC(O)CNCc3ccc(F)cc3)ccc2n1 (centres undefined) , Activity reported as 0

Kindly note the recorded Activity for CCN(CCCc1ccccc1)CC(O)COc1ccc2nc(O)ccc2c1 (centres undefined) , which is 0.2

So, COc1ccc(CNCC(O)COc2cccc3nc(O)ccc23)cc1OC (centres undefined) ? Its Activity was 0

Data point: CN(Cc1ccc(Cl)cc1)CC(O)COc1ccc2nc(O)ccc2c1 (centres undefined) ; Activity = 0.1

CCN(CCOc1ccccc1)CC(O)COc1ccc2nc(O)ccc2c1 (centres undefined) yielded Activity of 0

###

Species on record: Canis familiaris
Assay: The chronotropic effect tested in vitro by using isolated blood-perfused dog heart preparations
Format: functional, Canis lupus familiaris
reported_property: Activity
Field format: numeric only.

Example entries and their recorded answers appear below.
compound: Oc1ccc2cc(OCC(O)CNCCc3ccccc3)ccc2n1 (stereo not given)
Activity: 0

compound: Oc1ccc2cc(OCC(O)CNCCCc3ccccc3)ccc2n1 (stereo not given)
Activity: 0.4

Lookup result for Oc1ccc2cc(OCC(O)CNCc3ccc(Cl)cc3)ccc2n1 (stereo not given) ; measured Activity: 0

Activity for COc1ccc(CNCC(O)COc2ccc3[nH]c(=O)ccc3c2)cc1OC (stereo not given) is 0

Data point: COc1ccc(CN(C)CC(O)COc2ccc3nc(O)ccc3c2)cc1 (stereo not given) ; Activity = 0.2
